Answer each item with its documented T/C.
system: nude mice, LX-1 lung xenograft intrarenal, tumor weight T/C; assay: NCI In Vivo Anticancer Drug Screen. Data for tumor model Human Lung LX-1 Xenograft (intrarenal inoculation) in NU/NU Swiss (nude) mice; conditions: endpoint: mean tumor weight change; dose: 100.0 mg/kg/injection; schedule: Q04DX003 (sc); vehicle: Klucel (hydroxypropylcellulose) (HPC); higher = larger tumour
Inconclusive results are not listed.

The compound `CCNC(=O)[B-][N+](C)(C)C` on nude mice, LX-1 lung xenograft intrarenal, tumor weight T/C: T/C was 108 % of control

The compound `COc1ccc(Cl)[n+]([O-])n1` on nude mice, LX-1 lung xenograft intrarenal, tumor weight T/C: T/C was 80 % of control

The compound `O=Cc1ccccc1` on nude mice, LX-1 lung xenograft intrarenal, tumor weight T/C: T/C was 64 % of control

The compound `CC(=O)O[C@@H]1CO[C@H]2O[C@H]3[C@@H](C(C=O)=C[C@H](O)[C@@H]4C5=C(C(C)C)CC[C@]5(C)CC[C@@]34C)[C@@]2(O)C1=O` on nude mice, LX-1 lung xenograft intrarenal, tumor weight T/C: T/C was 94 % of control

The compound O=C1C=CC(n2cc(F)c(=O)[nH]c2=O)O1 (stereo unspecified) on nude mice, LX-1 lung xenograft intrarenal, tumor weight T/C: T/C was 46 % of control

The compound `C/C(=N\N=C(/[Se])N1CC2CCC(CC2)C1)c1ccccn1` on nude mice, LX-1 lung xenograft intrarenal, tumor weight T/C: T/C was 253 % of control

###

system: nude mice, LX-1 lung xenograft intrarenal, tumor weight T/C; test: NCI In Vivo Anticancer Drug Screen. Data for tumor model Human Lung LX-1 Xenograft (intrarenal inoculation) in NU/NU Swiss (nude) mice; conditions: endpoint: mean tumor weight change; dose: 12.5 mg/kg/injection; schedule: Q01DX010 (sc); vehicle: water; higher = larger tumour
Inconclusive results are not listed.
Answer each item with its documented T/C.

The molecule CN1N=C(N)c2cn(C3OC(COP(=O)(O)O)C(O)C3O)c3ncnc1c23 (stereo not given) on nude mice, LX-1 lung xenograft intrarenal, tumor weight T/C: T/C was 107 % of control

The molecule `CC(/C=N/N=C(N)N)=N\N=C(N)N` on nude mice, LX-1 lung xenograft intrarenal, tumor weight T/C: T/C was 81 % of control

The molecule CCCCCCCC(=O)N/N=C(\CO)[C@]1(O)Cc2c(O)c3c(c(O)c2[C@@H](OC2CC(N)C(O)C(C)O2)C1)C(=O)c1c(OC)cccc1C3=O (stereo not given in full) on nude mice, LX-1 lung xenograft intrarenal, tumor weight T/C: T/C was 40 % of control

The molecule `Cn1cnc([N+](=O)[O-])c1[Se]c1nc(N)nc2nc[nH]c12` on nude mice, LX-1 lung xenograft intrarenal, tumor weight T/C: T/C was 63 % of control

The molecule `O=C(Nc1ccc(C2=NCCN2)cc1)c1ccc(C(=O)Nc2ccc(C3=NCCN3)cc2)c(Cl)c1` on nude mice, LX-1 lung xenograft intrarenal, tumor weight T/C: T/C was 74 % of control

###

Answer each item with its documented T/C.
system: nude mice, LX-1 lung xenograft intrarenal, tumor weight T/C; assay: NCI In Vivo Anticancer Drug Screen. Data for tumor model Human Lung LX-1 Xenograft (intrarenal inoculation) in NU/NU Swiss (nude) mice; settings: endpoint: mean tumor weight change; dose: 12.5 mg/kg/injection; schedule: Q01DX010 (sc); vehicle: saline; higher = larger tumour
Records with an inconclusive call do not appear.

Recorded result, `Cc1c2c(ccc3ccccc32)c[n+]2ccccc12` , T/C: 38 % of control

Recorded result, `CNC(=O)ON(C(C)=O)C(=O)NC` , T/C: 109 % of control

Recorded result, CCCCNC(C)[C@]1(O)Cc2c(O)c3c(c(O)c2[C@@H](OC2CC(N)C(O)C(C)O2)C1)C(=O)c1c(OC)cccc1C3=O (stereo partly specified) , T/C: 68 % of control

Recorded result, O=c1n(CC2CO2)c(=O)n(CC2CO2)c(=O)n1CC1CO1 (stereo unspecified) , T/C: 65 % of control

Recorded result, `CN(C)C(=O)c1cccc(COc2ccc(N3C(N)=NC(N)=NC3(C)C)cc2Cl)c1` , T/C: 57 % of control

Recorded result, `Cc1c2ccncc2c(C)c2c1[nH]c1ccccc12` , T/C: 85 % of control

Recorded result, `CC1(C)N=C(N)N=C(N)N1c1ccc(CCCCc2ccc(S(=O)(=O)F)cc2Cl)c(Cl)c1` , T/C: 78 % of control

Recorded result, `CS(=O)(=O)OCCN(CCOS(C)(=O)=O)c1ccc(C=O)cc1` , T/C: 188 % of control

Recorded result, COc1cc(C)c2c(c1C=O)Oc1c(c(C)c(O)c3c1C(O)OC3=O)OC2=O (stereo unspecified) , T/C: 95 % of control

Recorded result, `Nc1nncs1` , T/C: 104 % of control

Recorded result, C1OC1C1CO1 (stereo unspecified) , T/C: 106 % of control

Recorded result, COc1cccc2c1C(=O)c1c(O)c3c(c(O)c1C2=O)C[C@H](O)C[C@@H]3OC1CC(N)C(O)C(C)O1 (stereo partly specified) , T/C: 336 % of control

Recorded result, `CN1CCN(CCCN2c3ccccc3Sc3ccc(C(F)(F)F)cc32)CC1` , T/C: 124 % of control

Recorded result, N=[N+]=CC(=O)OCC(N)C(=O)O (stereo unspecified) , T/C: 101 % of control

Recorded result, O=C1C=C(C2OC(CO)C(O)C2O)C(=O)N1 (stereo unspecified) , T/C: 46 % of control

Recorded result, C[N+](C)(C)c1ncnc2c1ncn2C1CCCO1 (stereo unspecified) , T/C: 176 % of control

###

Answer each item with its documented T/C.
system: nude mice, LX-1 lung xenograft intrarenal, tumor weight T/C; assay: NCI In Vivo Anticancer Drug Screen. Data for tumor model Human Lung LX-1 Xenograft (intrarenal inoculation) in NU/NU Swiss (nude) mice; conditions: endpoint: mean tumor weight change; dose: 6.25 mg/kg/injection; schedule: Q01DX010 (sc); vehicle: saline with Tween-80; higher = larger tumour
Records with an inconclusive call do not appear.

Recorded result, `O=c1cc(CCl)[nH]nc1CCl` , T/C: 92 % of control

Recorded result, Cc1cc(N(CC(C)Br)CC(C)Br)ccc1N=Nc1ccccc1C(=O)O (configuration not stated) , T/C: 151 % of control

Recorded result, `c1ccc2c(c1)nnn1c3cnccc3nc21` , T/C: 187 % of control

Recorded result, `C=CC(=O)N1CN(C(=O)C=C)CN(C(=O)C=C)C1` , T/C: 92 % of control

Recorded result, CC1(CO)C(O)CCC2(C)C1CCC1CC3CC12CCC3(O)CO (configuration not stated) , T/C: 181 % of control

Recorded result, CCCCCCCC(=O)[O][Hg][CH2]C1COC([CH2][Hg][O]C(=O)CCCCCCC)CO1 (configuration not stated) , T/C: 224 % of control

Recorded result, O=C1C2CC=CCC2C(=O)N1SC(Cl)(Cl)Cl (configuration not stated) , T/C: 102 % of control

###

Answer each item with its documented T/C.
System: nude mice, LX-1 lung xenograft intrarenal, tumor weight T/C
Assay: NCI In Vivo Anticancer Drug Screen. Data for tumor model Human Lung LX-1 Xenograft (intrarenal inoculation) in NU/NU Swiss (nude) mice
Details: endpoint: mean tumor weight change; dose: 400.0 mg/kg/injection; schedule: Q04DX003 (sc); vehicle: saline with Tween-80; higher = larger tumour
Description: The antitumor activity of compounds was measured in mice bearing transplantable tumors. Survival or tumor size were measured and the results are expressed as the measurement made in the treated group (T) divided by the measurement made in the vehicle treated control group (C). The tumor model used in this assay is Human Lung LX-1 Xenograft (intrarenal inoculation) in NU/NU Swiss (nude) mice
Inconclusive results are not listed.

Recorded result, `COC1=C(OC)C(=O)C(Sc2ccc3ccccc3c2)=CC1=O` , T/C: 104 % of control

Recorded result, `O=Cc1ccc(O)c(O)c1` , T/C: 86 % of control

Recorded result, `C[C@]12CC[C@@H]3c4ccc(OC(=O)Cc5ccc(N(CCCl)CCCl)cc5)cc4CC[C@H]3[C@@H]1CC[C@@H]2OC(=O)Cc1ccc(N(CCCl)CCCl)cc1` , T/C: 107 % of control

Recorded result, `Cc1ccc(N)c(N)c1` , T/C: 74 % of control

Recorded result, `COc1cc(C(C)(C)C)cc(OC)c1C(O)(c1c(OC)cc(C(C)(C)C)cc1OC)c1c(OC)cc(C(C)(C)C)cc1OC` , T/C: 98 % of control

Recorded result, `Nc1nc(-c2cccc3ccccc23)cc2ccccc12` , T/C: 94 % of control

Recorded result, `O=C(Nc1ccccc1C(=O)O)c1cc([N+](=O)[O-])cc([N+](=O)[O-])c1` , T/C: 64 % of control

Recorded result, `Clc1ccc2nnnn2n1` , T/C: 93 % of control

Recorded result, `ClC1=C(Cl)C(Cl)=C(Cl)C1=Cc1ccccc1` , T/C: 105 % of control

Recorded result, CCCCCCOC(CN(C)C)C(Cl)(Cl)Cl (stereo unspecified) , T/C: 95 % of control

Recorded result, `O=c1c(O)c(-c2cc(O)c(O)c(O)c2)oc2cc(O)cc(O)c12` , T/C: 94 % of control
